# run-description: antimalarial activity against Dd2 strain (AID 2302)
# settings: P. falciparum Dd2 in RBCs, LDH growth readout, 72 h; at 2 µM
Active and inactive are the calls of the source.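 The calls were made as follows: active = growth inhibition above 50% at the single 2 µM test dose, taken to imply half-maximal potency below 2 µM; inactive = the rest.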
Labels: y (active), n (inactive)

{"molecule": "CCN(CC)CCN(Cc1ccc(-c2ccc(C(F)(F)F)cc2)cc1)C(=O)Cn1c(CCc2cc(F)c(F)cc2F)nc(=O)c2ccccc21", "label-value": "y"}
{"molecule": "COCCNCC(O)Cn1c2ccc(Cl)cc2c2cc(Cl)ccc21 (stereo unspecified)", "label-value": "y"}
{"molecule": "CCc1cc(NC2CCN(C)CC2)nc(Nc2cccc(OC)c2)n1", "label-value": "n"}
{"molecule": "COc1ccc(CNc2ccc3nc(N)nc(N)c3c2)cc1", "label-value": "y"}
{"molecule": "CCc1cc(OC)c(C(=O)NC2CCN(C[C@H](O)c3ccnc4ccc(OC)cc34)CC2)cc1Br", "label-value": "y"}
{"molecule": "COCCNc1nc(N2CCC(CNC(=O)c3ccc(-c4ccc(C(=O)N(C)C)cc4C)cc3)CC2)nc2cc(OC)c(OC)cc12", "label-value": "y"}
